- ASSAYED SYSTEM: 14-3-3 zeta (Homo sapiens)
- Construct: made in house; host or cells: E. coli DH5α (vector pGEX-KT)
- Sequence (P63104 whole entry): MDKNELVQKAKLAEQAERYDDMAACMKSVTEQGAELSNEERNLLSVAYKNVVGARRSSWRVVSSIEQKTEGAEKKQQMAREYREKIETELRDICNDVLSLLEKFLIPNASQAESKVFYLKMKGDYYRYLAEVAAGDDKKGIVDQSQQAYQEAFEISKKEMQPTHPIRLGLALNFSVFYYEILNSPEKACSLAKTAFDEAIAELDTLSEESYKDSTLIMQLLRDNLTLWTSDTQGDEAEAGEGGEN
- ASSAY SUMMARY: Surface plasmon resonance, GST-14-3-3 zeta binding to immobilized biotinylated Raf-259 peptide (binding and kinetics)
- CONDITION PARAMETERS: 14-3-3 zeta; KD = koff/kon; read-out: apparent KD measured by SPR
Where no end group is shown, it is not given here.
RESULT TYPE: Kd

**Q:** Endpoint output: Kd of LSQRQRSTSTPNVHM [Raf-259, LSQRQRSTSTPNVHM, reference compound] . Value?
**A:** ~122 nM

---

- ASSAYED SYSTEM: 14-3-3 eta (Homo sapiens, UniProt Q04917)
- Sequence (Q04917 whole entry): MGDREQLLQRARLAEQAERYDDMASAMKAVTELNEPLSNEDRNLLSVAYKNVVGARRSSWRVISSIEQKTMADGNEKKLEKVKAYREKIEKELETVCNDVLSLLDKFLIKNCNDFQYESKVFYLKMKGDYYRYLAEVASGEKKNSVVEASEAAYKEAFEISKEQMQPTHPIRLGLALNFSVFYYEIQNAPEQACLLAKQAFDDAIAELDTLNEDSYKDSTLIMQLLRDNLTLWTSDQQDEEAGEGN
- ASSAY SUMMARY: SPR competitive inhibition of 14-3-3 eta binding to phosphorylated Raf-259 peptide
- CONDITION PARAMETERS: isoform eta
Where a SMILES comes first, the peptide text is derived from it. [ ]: non-standard residue; d: D form. pS = N[C@@H](COP(=O)(O)O)C(=O)O
Assignment: determine reported IC50 for the given compounds.
The reply should contain only the number, in µM.

**Q:** Endpoint output: IC50 of CSCC[C@H](NC(=O)[C@H](Cc1c[nH]cn1)NC(=O)[C@@H](NC(=O)[C@H](CC(N)=O)NC(=O)[C@H](C)NC(=O)[C@@H](NC(=O)[C@H](COP(=O)(O)O)NC(=O)[C@@H](NC(=O)[C@H](CO)NC(=O)[C@H](CCCNC(=N)N)NC(=O)[C@H](CCC(N)=O)NC(=O)[C@H](CCCNC(=N)N)NC(=O)[C@H](CCC(N)=O)NC(=O)[C@H](CO)NC(=O)[C@@H](N)CC(C)C)[C@@H](C)O)[C@@H](C)O)C(C)C)C(=O)O [PA] (H-LSQRQRST[pS]TANVHM-OH) . Value?
**A:** 20

**Q:** Endpoint output: IC50 of CC[C@H](C)[C@H](NC(=O)[C@H](CCCCN)NC(=O)[C@@H]1CCCN1C(=O)[C@@H](N)CC(C)C)C(=O)N[C@@H](CC(N)=O)C(=O)N[C@@H](CCCNC(=N)N)C(=O)N[C@@H](CO)C(=O)N[C@@H](C)C(=O)N[C@@H](COP(=O)(O)O)C(=O)N[C@@H](CCC(=O)O)C(=O)N1CCC[C@H]1C(=O)N[C@@H](CO)C(=O)N[C@@H](CC(C)C)C(=O)N[C@@H](Cc1c[nH]cn1)C(=O)N[C@@H](CCCNC(=N)N)C(=O)O [pS-Raf-621] (H-LPKINRSA[pS]EPSLHR-OH) . Value?
**A:** 3

**Q:** Endpoint output: IC50 of CC(C)C[C@H](N)C(=O)N[C@@H](CO)C(=O)N[C@@H](CCC(N)=O)C(=O)N[C@@H](CCCNC(=N)N)C(=O)N[C@@H](CCC(N)=O)C(=O)N[C@@H](CCCNC(=N)N)C(=O)N[C@@H](CO)C(=O)N[C@H](C(=O)N[C@@H](COP(=O)(O)O)C(=O)N[C@H](C(=O)N1CCC[C@H]1C(=O)N[C@@H](CC(N)=O)C(=O)N[C@H](C(=O)N[C@@H](Cc1c[nH]cn1)C(=O)N[C@@H](C)C(=O)O)C(C)C)[C@@H](C)O)[C@@H](C)O [pS-Raf-259] (H-LSQRQRST[pS]TPNVHA-OH) . Value?
**A:** 5

---

Assignment: determine reported pIC50 for the given compounds.
- ASSAYED SYSTEM: 14-3-3 tau (Homo sapiens)
- Sequence (P27348 whole entry): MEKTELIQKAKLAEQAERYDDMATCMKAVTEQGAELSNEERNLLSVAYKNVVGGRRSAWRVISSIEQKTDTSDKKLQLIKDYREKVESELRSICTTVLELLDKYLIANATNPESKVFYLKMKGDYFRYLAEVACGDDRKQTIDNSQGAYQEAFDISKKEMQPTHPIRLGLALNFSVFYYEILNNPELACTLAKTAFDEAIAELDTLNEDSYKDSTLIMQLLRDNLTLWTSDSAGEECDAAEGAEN
- ASSAY SUMMARY: SPR competitive inhibition of 14-3-3 tau binding to phosphorylated Raf-259 peptide
- CONDITION PARAMETERS: isoform tau
Where a SMILES comes first, the peptide text is derived from it. [ ]: non-standard residue; d: D form. pS = N[C@@H](COP(=O)(O)O)C(=O)O
Note on units: pIC50 is unitless, being -log10 of a concentration expressed in mol/L.

**Q:** Endpoint output: pIC50 of CC[C@H](C)[C@H](NC(=O)[C@H](CCCCN)NC(=O)[C@@H]1CCCN1C(=O)[C@@H](N)CC(C)C)C(=O)N[C@@H](CC(N)=O)C(=O)N[C@@H](CCCNC(=N)N)C(=O)N[C@@H](CO)C(=O)N[C@@H](C)C(=O)N[C@@H](COP(=O)(O)O)C(=O)N[C@@H](CCC(=O)O)C(=O)N1CCC[C@H]1C(=O)N[C@@H](CO)C(=O)N[C@@H](CC(C)C)C(=O)N[C@@H](Cc1c[nH]cn1)C(=O)N[C@@H](CCCNC(=N)N)C(=O)O [pS-Raf-621] (H-LPKINRSA[pS]EPSLHR-OH) . Value?
**A:** 5.70

**Q:** Endpoint output: pIC50 of CC(C)C[C@H](N)C(=O)N[C@@H](CO)C(=O)N[C@@H](CCC(N)=O)C(=O)N[C@@H](CCCNC(=N)N)C(=O)N[C@@H](CCC(N)=O)C(=O)N[C@@H](CCCNC(=N)N)C(=O)N[C@@H](CO)C(=O)N[C@H](C(=O)N[C@@H](COP(=O)(O)O)C(=O)N[C@H](C(=O)N1CCC[C@H]1C(=O)N[C@@H](CC(N)=O)C(=O)N[C@H](C(=O)N[C@@H](Cc1c[nH]cn1)C(=O)N[C@@H](C)C(=O)O)C(C)C)[C@@H](C)O)[C@@H](C)O [pS-Raf-259] (H-LSQRQRST[pS]TPNVHA-OH) . Value?
**A:** 5.30

**Q:** Endpoint output: pIC50 of CSCC[C@H](NC(=O)[C@H](Cc1c[nH]cn1)NC(=O)[C@@H](NC(=O)[C@H](CC(N)=O)NC(=O)[C@H](C)NC(=O)[C@@H](NC(=O)[C@H](COP(=O)(O)O)NC(=O)[C@@H](NC(=O)[C@H](CO)NC(=O)[C@H](CCCNC(=N)N)NC(=O)[C@H](CCC(N)=O)NC(=O)[C@H](CCCNC(=N)N)NC(=O)[C@H](CCC(N)=O)NC(=O)[C@H](CO)NC(=O)[C@@H](N)CC(C)C)[C@@H](C)O)[C@@H](C)O)C(C)C)C(=O)O [PA] (H-LSQRQRST[pS]TANVHM-OH) . Value?
**A:** 4.57

---

- ASSAYED SYSTEM: 14-3-3 beta (Homo sapiens)
- Sequence (P31946 whole entry): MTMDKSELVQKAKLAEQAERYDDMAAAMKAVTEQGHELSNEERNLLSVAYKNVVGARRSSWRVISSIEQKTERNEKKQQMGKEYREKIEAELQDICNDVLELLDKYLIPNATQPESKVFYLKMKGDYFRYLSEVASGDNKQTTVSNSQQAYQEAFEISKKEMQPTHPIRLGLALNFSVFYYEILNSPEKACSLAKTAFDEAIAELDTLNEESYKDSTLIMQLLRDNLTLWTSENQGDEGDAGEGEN
- ASSAY SUMMARY: SPR competitive inhibition of 14-3-3 beta binding to phosphorylated Raf-259 peptide
- CONDITION PARAMETERS: isoform beta
Where a SMILES comes first, the peptide text is derived from it. [ ]: non-standard residue; d: D form. pS = N[C@@H](COP(=O)(O)O)C(=O)O
Assignment: determine reported pIC50 for the given compounds.
Note on units: pIC50 is unitless, being -log10 of a concentration expressed in mol/L.

**Q:** Endpoint output: pIC50 of CC(C)C[C@H](N)C(=O)N[C@@H](CO)C(=O)N[C@@H](CCC(N)=O)C(=O)N[C@@H](CCCNC(=N)N)C(=O)N[C@@H](CCC(N)=O)C(=O)N[C@@H](CCCNC(=N)N)C(=O)N[C@@H](CO)C(=O)N[C@H](C(=O)N[C@@H](COP(=O)(O)O)C(=O)N[C@H](C(=O)N1CCC[C@H]1C(=O)N[C@@H](CC(N)=O)C(=O)N[C@H](C(=O)N[C@@H](Cc1c[nH]cn1)C(=O)N[C@@H](C)C(=O)O)C(C)C)[C@@H](C)O)[C@@H](C)O [pS-Raf-259] (H-LSQRQRST[pS]TPNVHA-OH) . Value?
**A:** 5.22

**Q:** Endpoint output: pIC50 of CC[C@H](C)[C@H](NC(=O)[C@H](CCCCN)NC(=O)[C@@H]1CCCN1C(=O)[C@@H](N)CC(C)C)C(=O)N[C@@H](CC(N)=O)C(=O)N[C@@H](CCCNC(=N)N)C(=O)N[C@@H](CO)C(=O)N[C@@H](C)C(=O)N[C@@H](COP(=O)(O)O)C(=O)N[C@@H](CCC(=O)O)C(=O)N1CCC[C@H]1C(=O)N[C@@H](CO)C(=O)N[C@@H](CC(C)C)C(=O)N[C@@H](Cc1c[nH]cn1)C(=O)N[C@@H](CCCNC(=N)N)C(=O)O [pS-Raf-621] (H-LPKINRSA[pS]EPSLHR-OH) . Value?
**A:** 5.70

---

- ASSAYED SYSTEM: 14-3-3 eta (Homo sapiens, UniProt Q04917)
- ASSAY SUMMARY: SPR competitive inhibition of 14-3-3 eta binding to phosphorylated Raf-259 peptide
- CONDITION PARAMETERS: isoform eta
pIC50: −log10 of the molar value. Where a SMILES comes first, the peptide text is derived from it. [ ]: non-standard residue; d: D form. pS = N[C@@H](COP(=O)(O)O)C(=O)O
RESULT TYPE: pIC50

**Q:** Endpoint output: pIC50 of CC(C)C[C@H](N)C(=O)N[C@@H](CO)C(=O)N[C@@H](CCC(N)=O)C(=O)N[C@@H](CCCNC(=N)N)C(=O)N[C@@H](CCC(N)=O)C(=O)N[C@@H](CCCNC(=N)N)C(=O)N[C@@H](COP(=O)(O)O)C(=O)N[C@H](C(=O)N[C@@H](COP(=O)(O)O)C(=O)N[C@H](C(=O)N1CCC[C@H]1C(=O)N[C@@H](CC(N)=O)C(=O)N[C@H](C(=O)N[C@@H](Cc1c[nH]cn1)C(=O)N[C@@H](C)C(=O)O)C(C)C)[C@@H](C)O)[C@@H](C)O [pS-Raf-257,259] (H-LSQRQR[pS]T[pS]TPNVHA-OH) . Value?
**A:** < 4.30

**Q:** Endpoint output: pIC50 of CC(C)C[C@H](N)C(=O)N[C@@H](CO)C(=O)N[C@@H](CCC(N)=O)C(=O)N[C@@H](CCCNC(=N)N)C(=O)N[C@@H](CCC(N)=O)C(=O)N[C@@H](CCCNC(=N)N)C(=O)N[C@@H](COP(=O)(O)O)C(=O)N[C@H](C(=O)N[C@@H](CO)C(=O)N[C@H](C(=O)N1CCC[C@H]1C(=O)N[C@@H](CC(N)=O)C(=O)N[C@H](C(=O)N[C@@H](Cc1c[nH]cn1)C(=O)N[C@@H](C)C(=O)O)C(C)C)[C@@H](C)O)[C@@H](C)O [pS-Raf-257] (H-LSQRQR[pS]TSTPNVHA-OH) . Value?
**A:** < 4.30

**Q:** Endpoint output: pIC50 of CC(C)C[C@H](N)C(=O)N[C@@H](CO)C(=O)N[C@@H](CCC(N)=O)C(=O)N[C@@H](C)C(=O)N[C@@H](CCC(N)=O)C(=O)N[C@@H](C)C(=O)N[C@@H](CO)C(=O)N[C@H](C(=O)N[C@@H](COP(=O)(O)O)C(=O)N[C@H](C(=O)N1CCC[C@H]1C(=O)N[C@@H](CC(N)=O)C(=O)N[C@H](C(=O)N[C@@H](Cc1c[nH]cn1)C(=O)N[C@@H](C)C(=O)O)C(C)C)[C@@H](C)O)[C@@H](C)O [254/256RA] (H-LSQAQAST[pS]TPNVHA-OH) . Value?
**A:** < 4.30
